Counter-ions that a name gives are not always drawn.
# melting point listing for each entry below
PROPERTY_MEASURED: melting point

| COMPOUND | OBSERVED_MEASUREMENT |
| --- | --- |
| CN1CCc2c(sc3ncn(CCCN4CCN(c5ncccn5)CC4)c(=N)c23)C1 | 161 to 163 °C |
| CCN1CCc2sc3ncn(CCN4CCCN(c5cccc6ccccc56)CC4)c(=O)c3c2C1 (as salt: hydrochloride) | 276 to 280 °C |
| CN1CCc2c(sc3ncn(CCCN4CCN(c5ccccc5C#N)CC4)c(=N)c23)C1 | 148 to 150 °C |
| CN1CCc2c(sc3ncn(CCN4CCN(c5ccc6ccccc6n5)CC4)c(=O)c23)C1 | 143 to 145 °C |
| CCN1CCc2sc3ncn(CCN4CCN(c5ccccc5Cl)CC4)c(=O)c3c2C1 | 148 to 150 °C |
| CCOC(=O)N1Cc2sc3ncn(CCN4CCN(c5ccccc5C)CC4)c(=O)c3c2C1 | 152 °C |
| COc1ccccc1N1CCN(CCCn2cnc3sc4c(c3c2=N)CCN(C)C4)CC1 | 112 to 114 °C |
| CN1CCc2c(sc3ncn(CCN4CCN(c5ccccc5)CC4)c(=O)c23)C1 | 121 to 123 °C |
